biological target: human CD33 on primary human monocyte-derived dendritic cells (human, UniProt P20138 18-364); assay: cell-based or functional assay
Sequence (P20138 18-364): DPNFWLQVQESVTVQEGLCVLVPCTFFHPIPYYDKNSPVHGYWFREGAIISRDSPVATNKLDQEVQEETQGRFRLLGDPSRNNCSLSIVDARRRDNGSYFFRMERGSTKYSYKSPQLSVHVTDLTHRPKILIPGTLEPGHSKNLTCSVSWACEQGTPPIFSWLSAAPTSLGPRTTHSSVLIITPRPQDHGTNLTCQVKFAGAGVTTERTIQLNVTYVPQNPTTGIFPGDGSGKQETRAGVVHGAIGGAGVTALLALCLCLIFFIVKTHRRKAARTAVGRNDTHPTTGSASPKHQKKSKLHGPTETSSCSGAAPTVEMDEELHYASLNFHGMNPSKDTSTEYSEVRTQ
MEASURED_PARAMETER: Receptor downregulation (EC50) (nM)
Write down the numeric answer in nM and omit the unit.

- BINDER: "AB-H2 (antibody, V domains shown, Humanized variant of murine 2F5.1) VH: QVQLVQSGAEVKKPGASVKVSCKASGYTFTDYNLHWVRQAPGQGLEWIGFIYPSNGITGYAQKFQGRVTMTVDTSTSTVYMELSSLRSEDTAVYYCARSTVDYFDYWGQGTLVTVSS VL: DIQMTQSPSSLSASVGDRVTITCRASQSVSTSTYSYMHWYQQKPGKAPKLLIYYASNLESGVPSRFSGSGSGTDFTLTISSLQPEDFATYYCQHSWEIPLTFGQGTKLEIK"
  ASSAY_RESULT: 0.0517
- BINDER: "AB-H64 (antibody, V domains shown, Humanized variant of murine 2F5.1; also called parental humanized antibody) VH: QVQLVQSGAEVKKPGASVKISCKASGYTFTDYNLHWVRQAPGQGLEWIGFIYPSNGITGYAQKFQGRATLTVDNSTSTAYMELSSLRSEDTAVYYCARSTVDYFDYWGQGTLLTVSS VL: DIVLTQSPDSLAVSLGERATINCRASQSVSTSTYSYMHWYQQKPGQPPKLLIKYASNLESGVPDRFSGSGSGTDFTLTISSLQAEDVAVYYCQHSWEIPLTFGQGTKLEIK"
  ASSAY_RESULT: 0.0137

Consider the record given below.
Prompt line: Looking for the measured Receptor downregulation (EC50) of AB-H63 (antibody, V domains shown, Humanized variant of murine 2F5.1) VH: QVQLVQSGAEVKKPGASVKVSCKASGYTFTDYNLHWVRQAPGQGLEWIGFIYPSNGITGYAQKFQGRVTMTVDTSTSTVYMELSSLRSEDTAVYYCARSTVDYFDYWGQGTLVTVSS VL: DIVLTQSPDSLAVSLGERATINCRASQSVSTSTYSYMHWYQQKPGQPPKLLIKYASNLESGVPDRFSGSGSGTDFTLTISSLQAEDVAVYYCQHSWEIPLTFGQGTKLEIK , can you help?
Response line: 0.0041

Provenance of the data: patent US20210139581A1
